Molecular target: Sphingosine 1-phosphate receptor 3 (Homo sapiens)
Sequence (Q99500 whole entry): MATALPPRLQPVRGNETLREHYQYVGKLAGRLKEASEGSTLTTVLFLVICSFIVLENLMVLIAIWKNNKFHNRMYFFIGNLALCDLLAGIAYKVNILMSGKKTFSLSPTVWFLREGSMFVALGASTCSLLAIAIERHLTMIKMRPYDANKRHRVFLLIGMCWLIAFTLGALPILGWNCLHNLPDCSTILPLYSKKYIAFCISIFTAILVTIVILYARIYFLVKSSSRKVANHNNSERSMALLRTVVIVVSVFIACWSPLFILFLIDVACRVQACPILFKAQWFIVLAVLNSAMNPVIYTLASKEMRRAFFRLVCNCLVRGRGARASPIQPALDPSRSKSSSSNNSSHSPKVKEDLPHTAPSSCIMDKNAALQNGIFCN
Assay: Inhibition of [33P]-S1P binding to human Sphingosine 1-phosphate receptor 3 expressed on CHO cell membranes
pIC50: −log10 of the molar value.
Given measured pIC50, output 1 if it is greater than or equal to 8 and 0 if not.

Query: In plain terms: is recorded pIC50 at least 8 for CCCCCCCCCCCCCCNC1CCCC(P(=O)(O)O)C1 (stereo in doubt) ?
Reply: 0

Query: Record CCCCCCCCCCCCCCN1CCC(O)(P(=O)(O)O)C1 (configuration not stated) ; criterion: pIC50 no lower than 8. Met?
Reply: 0

Query: Reported pIC50 at or above 8? CCCCCCCCCc1ccc(C2CCC(CCP(=O)(O)O)N2)cc1 (cis isomer)
Reply: 1

Query: # bool: pIC50 of CCCCCCCCCCCCCCN1CCC(O)(P(=O)(O)O)CC1 >= 8
Reply: 0

Query: I'd appreciate it if you could say whether CCCCCCCCCCCCCCNC1CCCC(P(=O)(O)O)C1 (trans isomer) has pIC50 at least equal to 8.
Reply: 0

Query: Entry CCCCCCCCCCCCCCC1CCCN1CCCP(=O)(O)O (configuration not stated) : is its pIC50 no less than 8?
Reply: 0
